system: UACC-62; assay: NCI tumour cell line growth inhibition, 48 h
The source made the active and inactive calls. Cut-off read from the data, not from the text of the source: active = GI50 up to about 1.1 µM and inactive = higher.
Collected GI50 values appear next to each entry.
Quantity Name: GI50

molecule=CN(C)CCNC(=O)c1cccc2[nH]c(-c3ccncc3)nc12 experimental_value="2.96 µM (inactive)"
molecule="CC[C@]1(Cc2ccc(OC)c(OC)c2)C2CC(C(=O)OC)ON2O[C@H](OCc2ccccc2)[C@@H]1OC(C)=O (stereo partly specified)" experimental_value="> 100 µM (inactive)"
molecule="COc1ccc(/C(=N/O)c2ccccc2C2=Nc3ccccc3C(NCc3ccccc3)O2)cc1C (stereo unspecified)" experimental_value="23.9 µM (inactive)"
molecule=O=C1C=CC(=O)c2c1ccc1c3ccccc3n(-c3ccccc3)c21 experimental_value="13 µM (inactive)"
molecule=COc1ccc2c(-c3ccc(OCCN(C)C)cc3)c(Oc3ccccc3)c(=O)oc2c1 experimental_value="2.78 µM (inactive)"
molecule="c1ccc2c(c1)cc(C1NCCc3nc[nH]c31)c1ccccc12 (stereo unspecified)" experimental_value="22.6 µM (inactive)"
molecule=COc1cccc2c1-c1nc(N)c3c(OC)cccc3c1C2=O experimental_value="> 100 µM (inactive)"
molecule=Cc1nc2ccc(Cl)cc2c2c1CCN2c1ccc(F)cc1 experimental_value="15.2 µM (inactive)"
molecule=O=C(O)/C(=C\c1ccc(O)cc1)c1cccc2ccccc12 experimental_value="> 100 µM (inactive)"
molecule=Cc1nc2n(c1/C=C1/C(=O)Nc3ccccc31)CCS2 experimental_value="24.2 µM (inactive)"
molecule=O=Cc1c(-c2ccccc2)nc2ccccc2c1O experimental_value="55.8 µM (inactive)"
molecule=CCOC(=O)CCn1[nH]c(=O)c(Cl)c(Cl)c1=O experimental_value="> 100 µM (inactive)"
molecule=CCC1(CC)N=C(C(F)(F)F)c2cc(C(=O)C(F)(F)F)c3ccccc3c2N1 experimental_value="3.36 µM (inactive)"
molecule=CC(NC(=O)N(C)C)NC(=O)N(C)C experimental_value="> 10 µM (inactive)"
molecule=CN(C)CCNc1ccc2nnn3c4ccc(O)cc4c(=O)c1c23 experimental_value="4.74 µM (inactive)"
molecule="COc1cccc(C2c3cc4c(cc3OC(C)(N3CCCC3)C2C)OCO4)c1 (stereo unspecified)" experimental_value="5.38 µM (inactive)"
molecule="CC12CC[C@@H](C(C)(C)O)C1[C@@H](O)CC1(C)C2CCC2[C@@]3(C)CC[C@H](O)C(C)(C)C3C(O)C[C@]21C (stereo partly specified)" experimental_value="15.6 µM (inactive)"
molecule=COC(=O)/C(=C1\OC(=O)C(c2ccc(Cl)cc2)=C1O)c1ccc(Cl)cc1 experimental_value="17.9 µM (inactive)"
molecule=CCN(C(=O)N[C@@H](Cc1ccccc1)C(=O)N[C@@H](CC(C)C)C(=O)OC)c1ccccc1 experimental_value="17.7 µM (inactive)"
molecule="O=C(O)C(CS)NCc1c2ccccc2[n+]([O-])c2ccccc12 (stereo unspecified)" experimental_value="47.4 µM (inactive)"
molecule="COc1ccc(N2C(=O)C3ON(Cc4ccc(CC(N)=O)cc4)C(c4c5ccccc5c(C)c5ccccc45)C3C2=O)cc1 (stereo unspecified)" experimental_value="30.7 µM (inactive)"

* * *

tested on: 786-0; assay: NCI tumour cell line growth inhibition, 48 h
The source made the active and inactive calls. Cut-off read from the data, not from the text of the source: active = GI50 up to about 1.1 µM and inactive = higher.
Labels: active, inactive

molecule=Cn1c(N)c(-c2c3ccccc3nc3ccccc23)c(=O)n(C)c1=O answer_label=inactive
molecule=CC(C)(C)N/N=C(\Cc1occc(=O)c1O)C(=O)Nc1ccc([N+](=O)[O-])cc1[N+](=O)[O-] answer_label=inactive
molecule=CS(=O)(=O)CSCSSCS(C)(=O)=O answer_label=inactive
molecule="CC(C)(C)OC(=O)n1cc(C2CN(O)C(=O)C23CCC(=O)N3Cc2ccccc2)c2ccccc21 (stereo not given)" answer_label=inactive
molecule=CN1CCc2c(sc3ncn(Nc4ccc(F)cc4)c(=N)c23)C1 answer_label=inactive
molecule=C#CCN(C)C(=O)N(CC#C)N=O answer_label=inactive
molecule="O=C(O)C(CS)NCc1c2ccccc2[n+]([O-])c2ccccc12 (stereo not given)" answer_label=inactive
molecule=N#CCCN(C(=O)Nc1ccc(NC(=O)N(CCC#N)c2ccccc2)cc1)c1ccccc1 answer_label=inactive
molecule=c1ccc(-c2cccc(-c3ccccn3)n2)nc1 answer_label=active
molecule=COC(=O)/C=C1/OC(c2ccc(OC)cc2)=C(Cl)C1=O answer_label=inactive
molecule=COc1c(N2CCCCC2)c2c(=O)c3ccccc3oc2c2cc(C)oc12 answer_label=inactive
molecule=CN(C)CCNc1ccc2nnn3c4ccc(O)cc4c(=O)c1c23 answer_label=inactive
molecule=CCOC(=O)CCN1C(=O)c2ccc(NC(=O)C(=O)O)cc2S1(=O)=O answer_label=inactive
molecule=C[n+]1[n-]o/c(=N\N=O)c1-c1cc(-c2/c(=N/N=O)o[n-][n+]2C)cc(-c2/c(=N\N=O)o[n-][n+]2C)c1 answer_label=inactive
molecule=COC(=O)[C@]1(CCC(C)=O)C(=O)C=CN([C@H](C)c2ccccc2)[C@@H]1Cc1ccc(OC)c(OCc2ccccc2)c1I answer_label=inactive
molecule=C=Cc1nc2nnc(CCCCCCCCc3nnc4nc(C=C)[nH]n34)n2[nH]1 answer_label=inactive
molecule=N#CNC(=N)NC(=O)/C=C/C=C/c1ccc(Cl)cc1 answer_label=inactive
molecule="COc1cc(C2S/C(=C/c3ccccc3)C(=O)N2c2ccc(Cl)c(Cl)c2)cc(OC)c1OC (stereo not given)" answer_label=inactive
molecule=CCOC(=O)c1nc2ccc(C(F)(F)F)cc2nc1Oc1cc(OC)c(OC)c(OC)c1 answer_label=inactive
molecule=Oc1cc(N2CCCC2)ccc1/C=N/N1C(=S)N(c2ccccc2)C(=N\c2ccccc2)/C1=N/c1ccccc1 answer_label=inactive
